Assay: Cytotoxicity, MTT assay
Assay type: cell-based, human
Details: human, HEK 293 cells; HEK 293; 45 μg/ml; 24 h; read-out: Viability
Where a SMILES comes first, the peptide text is derived from it. [ ]: non-standard residue; d: D form. The star is where a group is joined. Dab = NCC[C@H](N)C(=O)O; Cbz = O=C(OCc1ccccc1)*
Observable: viability at 24 h, 45 µg/mL (%)
Numbers only here, please. The scale is %.

Kindly note the recorded viability at 24 h, 45 µg/mL for CC[C@H](C)[C@H](NC(=O)[C@H](CCN)NC(=O)OCc1ccccc1)C(=O)N[C@@H](CCN)C(=O)N[C@H](Cc1ccccc1)C(=O)N[C@@H](CC(C)C)C(=O)N[C@@H](CCN)C(=O)N[C@@H](C(=O)N[C@@H](CC(C)C)C(=O)N[C@@H](CO)C(N)=O)C(C)C [Analogue 15] (Cbz-[Dab]I[Dab][dF]L[Dab][dV]LS-NH2) , which is 84.3

----------
Test: Cytotoxicity, MTT assay
Assay type: cell-based, human
Conditions: human, HEK 293 cells
Where a SMILES comes first, the peptide text is derived from it. [ ]: non-standard residue; d: D form. The star is where a group is joined. Dab = NCC[C@H](N)C(=O)O; Hexanoyl = CCCCCC(=O)*
Observable: viability at 24 h, 30 µg/mL (%)
Numbers only here, please. The scale is %.

Kindly note the recorded viability at 24 h, 30 µg/mL for CCCCCC(=O)N[C@@H](CCN)C(=O)N[C@H](C(=O)N[C@@H](CCN)C(=O)N[C@H](Cc1ccccc1)C(=O)N[C@@H](CC(C)C)C(=O)N[C@@H](CCN)C(=O)N[C@@H](C(=O)N[C@@H](CC(C)C)C(=O)N[C@@H](CO)C(N)=O)C(C)C)[C@@H](C)CC [Analogue 1] (Hexanoyl-[Dab]I[Dab][dF]L[Dab][dV]LS-NH2) , which is 85.2

----------
Tested on: rabbit red blood cells
Test: Hemolytic activity
Format: cell-based
Details: 32 μg/mL; relative to Triton X-100
Where a SMILES comes first, the peptide text is derived from it. [ ]: non-standard residue; d: D form. The star is where a group is joined. Decanoyl = CCCCCCCCCC(=O)*; Heptanoyl = CCCCCCC(=O)*; Dab = NCC[C@H](N)C(=O)O; Cbz = O=C(OCc1ccccc1)*
Observable: Hemolysis (%)
Numbers only here, please. The scale is %.

Below: 2 compounds and their reported Hemolysis.
Compound	Unit annotation	Hemolysis
CCCCCCCCCC(=O)N[C@@H](CCN)C(=O)N[C@H](C(=O)N[C@@H](CCN)C(=O)N[C@H](Cc1ccccc1)C(=O)N[C@@H](CC(C)C)C(=O)N[C@@H](CCN)C(=O)N[C@@H](C(=O)N[C@@H](CC(C)C)C(=O)N[C@@H](CO)C(N)=O)C(C)C)[C@@H](C)CC [Analogue 12] (Decanoyl-[Dab]I[Dab][dF]L[Dab][dV]LS-NH2)	%	37.2
CCCCCCC(=O)N[C@@H](CCN)C(=O)N[C@H](C(=O)N[C@@H](CCN)C(=O)N[C@H](Cc1ccccc1)C(=O)N[C@@H](CC(C)C)C(=O)N[C@@H](CCN)C(=O)N[C@@H](C(=O)N[C@@H](CC(C)C)C(=O)N[C@@H](CO)C(N)=O)C(C)C)[C@@H](C)CC [Analogue 3] (Heptanoyl-[Dab]I[Dab][dF]L[Dab][dV]LS-NH2)	%	0.78

Kindly note the recorded Hemolysis for CC[C@H](C)[C@H](NC(=O)[C@H](CCN)NC(=O)OCc1ccccc1)C(=O)N[C@@H](CCN)C(=O)N[C@H](Cc1ccccc1)C(=O)N[C@@H](CC(C)C)C(=O)N[C@@H](CCN)C(=O)N[C@@H](C(=O)N[C@@H](CC(C)C)C(=O)N[C@@H](CO)C(N)=O)C(C)C [Analogue 15] (Cbz-[Dab]I[Dab][dF]L[Dab][dV]LS-NH2) , which is 0.41

----------
Tested on: Acinetobacter baumannii ATCC 19606
Type: cell-based
Conditions: ATCC 19606
Where a SMILES comes first, the peptide text is derived from it. [ ]: non-standard residue; d: D form. The star is where a group is joined. Cha = N[C@@H](CC1CCCCC1)C(=O)O; Decanoyl = CCCCCCCCCC(=O)*; Heptanoyl = CCCCCCC(=O)*; Dab = NCC[C@H](N)C(=O)O; Hexanoyl = CCCCCC(=O)*
Observable: MIC

Compound	Target	MIC
CCCCCC(=O)N[C@@H](CCN)C(=O)N[C@H](C(=O)N[C@@H](CCN)C(=O)N[C@H](Cc1ccccc1)C(=O)N[C@@H](CC(C)C)C(=O)N[C@@H](CCN)C(=O)N[C@@H](C(=O)N[C@@H](CC(C)C)C(=O)N[C@@H](CO)C(N)=O)C(C)C)[C@@H](C)CC [Analogue 1] (Hexanoyl-[Dab]I[Dab][dF]L[Dab][dV]LS-NH2)	Acinetobacter baumannii ATCC 19606	>32 µg/mL
CCCCCCC(=O)N[C@@H](CCN)C(=O)N[C@H](C(=O)N[C@@H](CCN)C(=O)N[C@H](Cc1ccccc1)C(=O)N[C@@H](CC(C)C)C(=O)N[C@@H](CCN)C(=O)N[C@H](CC(C)C)C(=O)N[C@@H](CC(C)C)C(=O)N[C@@H](CO)C(N)=O)[C@@H](C)CC [Analogue 5] (Heptanoyl-[Dab]I[Dab][dF]L[Dab][dL]LS-NH2)	Acinetobacter baumannii ATCC 19606	8 to 16 µg/mL
CC[C@H](C)[C@H](NC(=O)[C@H](CCN)NC(=O)[C@@H](N)CC1CCCCC1)C(=O)N[C@@H](CCN)C(=O)N[C@H](Cc1ccccc1)C(=O)N[C@@H](CC(C)C)C(=O)N[C@@H](CCN)C(=O)N[C@@H](C(=O)N[C@@H](CC(C)C)C(=O)N[C@@H](CO)C(N)=O)C(C)C [Analogue 16] (H-[Cha][Dab]I[Dab][dF]L[Dab][dV]LS-NH2)	Acinetobacter baumannii ATCC 19606	≥32 µg/mL

Let us examine a further case.
Kindly note the recorded MIC for CCCCCCCCCC(=O)N[C@@H](CCN)C(=O)N[C@H](C(=O)N[C@@H](CCN)C(=O)N[C@H](Cc1ccccc1)C(=O)N[C@@H](CC(C)C)C(=O)N[C@@H](CCN)C(=O)N[C@@H](C(=O)N[C@@H](CC(C)C)C(=O)N[C@@H](CO)C(N)=O)C(C)C)[C@@H](C)CC [Analogue 12] (Decanoyl-[Dab]I[Dab][dF]L[Dab][dV]LS-NH2) , which is 0.5 to 2 µg/mL

----------
# Lookup of reported Hemolysis keyed by entry
Tested on: rabbit red blood cells
Assay: Hemolytic activity
Assay type: cell-based
Settings: 16 μg/mL; relative to Triton X-100
Where a SMILES comes first, the peptide text is derived from it. [ ]: non-standard residue; d: D form. The star is where a group is joined. ξ: configuration not given here. Thr(3ξ) = CC(O)[C@H](N)C(=O)O; Decanoyl = CCCCCCCCCC(=O)*; Heptanoyl = CCCCCCC(=O)*; Octanoyl = CCCCCCCC(=O)*; Orn = NCCC[C@H](N)C(=O)O; Dab = NCC[C@H](N)C(=O)O
Numbers only here, please. The scale is %.

Below: 3 compounds and their reported Hemolysis.
Compound	Unit annotation	Readout value
CCCCCCC(=O)N[C@@H](CCN)C(=O)N[C@H](C(=O)N[C@@H](CCN)C(=O)N[C@H](Cc1ccccc1)C(=O)N[C@@H](CC(C)C)C(=O)N[C@@H](CCN)C(=O)N[C@@H](C(=O)N[C@@H](CC(C)C)C(=O)N[C@@H](CO)C(N)=O)C(C)C)C(C)C [Analogue 2] (Heptanoyl-[Dab]V[Dab][dF]L[Dab][dV]LS-NH2)	%	−0.17
CCCCCCCC(=O)N[C@@H](CCN)C(=O)N[C@H](C(=O)N[C@@H](CCN)C(=O)N[C@H](Cc1ccccc1)C(=O)N[C@@H](CC(C)C)C(=O)N[C@@H](CCN)C(=O)N[C@@H](C(=O)N[C@@H](CC(C)C)C(=O)N[C@@H](CO)C(N)=O)C(C)C)[C@@H](C)CC [Analogue 8, C8-Pat] (Octanoyl-[Dab]I[Dab][dF]L[Dab][dV]LS-NH2)	%	0.93
CCCCCCCCCC(=O)N[C@@H](CCN)C(=O)N[C@H](C(=O)N[C@H](C(=O)N[C@H](CC(C)C)C(=O)N[C@@H](CC(C)C)C(=O)N[C@@H](CCN)C(=O)N[C@@H](C(=O)N[C@@H](CC(C)C)C(=O)N[C@@H](CO)C(N)=O)C(C)C)C(C)O)[C@@H](C)CC (stereo partly drawn) [Analogue 13] (Decanoyl-[Dab]I[Thr(3ξ)][dL]L[Dab][dV]LS-NH2)	%	1.25

Kindly note the recorded Hemolysis for CCCCCCCC(=O)N[C@@H](CCCN)C(=O)N[C@H](C(=O)N[C@@H](CCCN)C(=O)N[C@H](Cc1ccccc1)C(=O)N[C@@H](CC(C)C)C(=O)N[C@@H](CCCN)C(=O)N[C@@H](C(=O)N[C@@H](CC(C)C)C(=O)N[C@@H](CO)C(N)=O)C(C)C)[C@@H](C)CC [Analogue 11] (Octanoyl-[Orn]I[Orn][dF]L[Orn][dV]LS-NH2) , which is 0.86
